The origin of these recorded values is ChEMBL document CHEMBL3991601.

- subject-of-test: Ribosomal protein S6 kinase alpha-4 (Homo sapiens, UniProt O75676)
- Sequence (O75676 whole entry): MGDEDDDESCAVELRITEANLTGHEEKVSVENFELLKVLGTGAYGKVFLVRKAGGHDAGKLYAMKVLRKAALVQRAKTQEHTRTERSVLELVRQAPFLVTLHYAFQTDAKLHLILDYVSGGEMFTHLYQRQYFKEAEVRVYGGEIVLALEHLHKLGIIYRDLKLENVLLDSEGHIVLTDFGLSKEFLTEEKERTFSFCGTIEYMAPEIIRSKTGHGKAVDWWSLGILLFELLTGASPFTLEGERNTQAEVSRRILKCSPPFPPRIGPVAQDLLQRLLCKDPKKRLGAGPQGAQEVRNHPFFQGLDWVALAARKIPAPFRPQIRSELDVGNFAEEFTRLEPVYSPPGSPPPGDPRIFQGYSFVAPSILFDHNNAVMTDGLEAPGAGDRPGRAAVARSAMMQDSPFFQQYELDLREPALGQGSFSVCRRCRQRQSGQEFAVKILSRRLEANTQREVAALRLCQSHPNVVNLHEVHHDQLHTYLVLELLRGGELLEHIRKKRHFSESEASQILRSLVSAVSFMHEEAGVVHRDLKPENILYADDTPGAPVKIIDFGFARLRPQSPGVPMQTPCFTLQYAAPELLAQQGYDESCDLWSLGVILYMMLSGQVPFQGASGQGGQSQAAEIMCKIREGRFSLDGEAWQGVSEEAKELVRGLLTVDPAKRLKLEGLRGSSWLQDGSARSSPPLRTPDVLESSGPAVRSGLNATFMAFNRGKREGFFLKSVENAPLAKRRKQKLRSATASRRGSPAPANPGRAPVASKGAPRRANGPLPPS
Activity calls are given as the source filed them.
Outcome codes: active, inactive

| molecule | discrete-label |
| --- | --- |
| COc1ccc2c(OCc3nnc4ccc(-c5ccccc5)nn34)ccnc2c1 | inactive |
| O=S(=O)(c1cccc2c(O)nccc12)N1CCCNCC1 [HYDROXYFASUDIL] | inactive |
| Cn1c(=O)n(-c2ccc(C(C)(C)C#N)cc2)c2c3cc(-c4cnc5ccccc5c4)ccc3ncc21 | inactive |
| Cc1ccc(C(=O)Nc2ccc(Oc3cc4cnn(C)c4cc3-c3cn[nH]c3)c(F)c2)c(=O)n1-c1ccc(F)cc1 | inactive |
| CCc1cc2c(cc1N1CCC(N3CCOCC3)CC1)C(C)(C)c1[nH]c3cc(C#N)ccc3c1C2=O | inactive |
| CN(c1ncccc1CNc1nc(Nc2ccc3c(c2)CC(=O)N3)ncc1C(F)(F)F)S(C)(=O)=O | inactive |
| C[C@]1(O)C[C@@H](c2nc(-c3ccc4ccc(-c5ccccc5)nc4c3)c3c(N)nccn32)C1 | inactive |
| COc1ccc(-c2ccc3ncc4c(c3c2)n(-c2ccc(N3CCNCC3)c(C(F)(F)F)c2)c(=O)n4C)cn1 [BGT-226 FREE BASE] | inactive |
| COc1cc(F)c(F)c(Nc2ccc(I)cc2F)c1NS(=O)(=O)C1(C[C@H](O)CO)CC1 | inactive |
| COc1cc(Nc2ncc(F)c(Nc3ccc4c(n3)N(COP(=O)(O)O)C(=O)C(C)(C)O4)n2)cc(OC)c1OC | inactive |
| C#Cc1cccc(Nc2ncnc3cc4c(cc23)OCCOCCOCCO4)c1 | inactive |
| NC(=O)c1ccc(N(C(N)=O)c2c(F)cccc2F)nc1-c1ccc(F)cc1F | inactive |
| CNC(=O)c1cc(COc2nnc(Nc3ccc(Cl)cc3)c3ccoc23)ccn1 | inactive |
| COCCN1CCN(Cc2ccc(-c3n[nH]c4c3C(=O)c3c(NC(=O)NN5CCOCC5)cccc3-4)cc2)CC1 | inactive |
| Cn1cc(-c2[nH]c3cc(NC(=O)[C@H](N)C4CCCCC4)cc4c3c2C=NNC4=O)cn1 | active |
| C[C@@H]1COC(Nc2ccc3ncnc(Nc4ccc(OCc5nccs5)c(Cl)c4)c3c2)=N1 | inactive |
| Cc1c(NC(=O)OC[C@@H]2COCCN2)cn2ncnc(Nc3ccc4c(cnn4Cc4cccc(F)c4)c3)c12 | inactive |
| CC(C)CC(=O)Nc1[nH]nc2c1CN(C(=O)C1CCN(C)CC1)C2(C)C | inactive |

----------
- subject-of-test: Serine/threonine-protein kinase pim-2 (Homo sapiens, UniProt Q9P1W9)
- Sequence (Q9P1W9 whole entry): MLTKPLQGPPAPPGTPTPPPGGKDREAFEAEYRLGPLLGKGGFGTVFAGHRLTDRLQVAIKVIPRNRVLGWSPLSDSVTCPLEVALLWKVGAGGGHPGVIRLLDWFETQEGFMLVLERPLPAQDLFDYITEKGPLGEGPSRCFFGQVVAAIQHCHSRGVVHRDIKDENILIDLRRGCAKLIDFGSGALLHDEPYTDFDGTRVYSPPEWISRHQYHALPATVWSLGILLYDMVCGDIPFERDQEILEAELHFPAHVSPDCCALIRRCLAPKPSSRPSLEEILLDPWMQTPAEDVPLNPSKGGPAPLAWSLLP
Calls of active or inactive are those of the source.

| mol | subject-of-test | Kd |
| --- | --- | --- |
| C#Cc1cccc(Nc2ncnc3cc4c(cc23)OCCOCCOCCO4)c1 | Serine/threonine-protein kinase pim-2 (Homo sapiens, UniProt Q9P1W9) | > 30 µM (inactive) |
| CN1CCN(c2nc(C3=C(c4c[nH]c5ccccc45)C(=O)NC3=O)c3ccccc3n2)CC1 | Serine/threonine-protein kinase pim-2 (Homo sapiens, UniProt Q9P1W9) | > 30 µM (inactive) |
| O[C@H]1CC[C@H](Nc2ncc3nc(Nc4c(F)cc(F)cc4F)n([C@H]4CCOC4)c3n2)CC1 | Serine/threonine-protein kinase pim-2 (Homo sapiens, UniProt Q9P1W9) | > 30 µM (inactive) |
| Cc1cc(Nc2nc(N[C@@H](C)c3ncc(F)cn3)ncc2Cl)n[nH]1 | Serine/threonine-protein kinase pim-2 (Homo sapiens, UniProt Q9P1W9) | > 30 µM (inactive) |
| c1cc(OCCN2CCCCC2)cc(-c2n[nH]c3ccc(-c4nc[nH]n4)cc23)c1 | Serine/threonine-protein kinase pim-2 (Homo sapiens, UniProt Q9P1W9) | > 30 µM (inactive) |
| O=C(Nc1ccc(OC(F)(F)F)cc1)c1sccc1NCc1ccnc2ccccc12 | Serine/threonine-protein kinase pim-2 (Homo sapiens, UniProt Q9P1W9) | > 30 µM (inactive) |
| O=c1[nH]c([C@@H]2CCCN2)nc2c1oc1ccc(Cl)cc12 | Serine/threonine-protein kinase pim-2 (Homo sapiens, UniProt Q9P1W9) | > 30 µM (inactive) |
| Cc1cc(-c2cc(OC(=O)c3ccccc3)ccc2Cl)cc2nnc(Nc3ccc(OCCN4CCCC4)cc3)nc12 | Serine/threonine-protein kinase pim-2 (Homo sapiens, UniProt Q9P1W9) | > 30 µM (inactive) |
| COc1cc2ncnc(Nc3ccc(O)cc3)c2cc1OC | Serine/threonine-protein kinase pim-2 (Homo sapiens, UniProt Q9P1W9) | > 30 µM (inactive) |
